run description: Solubility measurements of Forms I and II in aqueous acetonitrile (HPLC, equilibrium plateau)
Type: physicochemical
assay context: aqueous acetonitrile, 25 °C, organic solvent or mixture, thermodynamic from solid, aqueous acetonitrile, water concentration 0 v/v %, 25 °C; read-out: Solubility
Where a name gives a salt, the structure may show the parent alone.
property measured: solubility (µg/mL)
The figure you give is taken to be in µg/mL; do not add the unit.

Name the reported solubility value associated with the molecule O=C(N[C@H]1CN2CCC1CC2)c1cc2cccc(Cl)c2s1 [Form I, hydrochloride monohydrate] 1300

---

run description: Solubility measurements of Forms I and II in aqueous acetonitrile (HPLC, equilibrium plateau)
Assay type: physicochemical
assay context: aqueous acetonitrile, 25 °C, organic solvent or mixture, thermodynamic from solid, aqueous acetonitrile, water concentration 10 v/v %, 25 °C; read-out: Solubility
Structures can show the parent of a compound that is named as a salt.
property measured: solubility (mg/mL)
The figure you give is taken to be in mg/mL; do not add the unit.

Name the reported solubility value associated with the molecule O=C(N[C@H]1CN2CCC1CC2)c1cc2cccc(Cl)c2s1 [Form I, hydrochloride monohydrate] 47.5

Source of measurements: patent US9550767B2
